This section presents molecules with their documented Activity values.
# TARGET_UNDER_TEST: Melanocortin receptor 3 (Homo sapiens, UniProt P41968)
# Sequence (P41968 whole entry): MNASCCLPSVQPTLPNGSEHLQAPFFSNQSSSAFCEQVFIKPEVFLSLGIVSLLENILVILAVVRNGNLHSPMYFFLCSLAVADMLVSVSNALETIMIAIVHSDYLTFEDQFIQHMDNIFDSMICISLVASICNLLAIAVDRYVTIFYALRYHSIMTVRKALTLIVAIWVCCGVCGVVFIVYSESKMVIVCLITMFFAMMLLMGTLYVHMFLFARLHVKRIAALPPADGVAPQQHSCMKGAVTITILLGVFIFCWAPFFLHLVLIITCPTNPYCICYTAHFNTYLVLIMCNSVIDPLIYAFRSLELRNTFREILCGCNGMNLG
# ASSAY_PROCEDURE: Agonist activity against human Melanocortin 3 receptor at 10 uM
Square brackets hold non-standard residues; d marks the D form. Peptide text beside a SMILES is read from it. d2Nal = N[C@H](Cc1ccc2ccccc2c1)C(=O)O; Nle = CCCC[C@H](N)C(=O)O
REPORTED_PROPERTY: Activity

1. CCCC[C@H](NC(=O)[C@@H](NC(=O)[C@@H](N)Cc1ccc(O)cc1)C(C)C)C(=O)NCC(=O)N1CCC[C@H]1C(=O)N[C@H](Cc1ccc2ccccc2c1)C(=O)N[C@@H](CCCN=C(N)N)C(=O)N[C@@H](Cc1c[nH]c2ccccc12)C(=O)N[C@@H](CC(=O)O)C(=O)N[C@@H](CCCN=C(N)N)C(=O)N[C@@H](Cc1ccccc1)C(=O)NCC(N)=O (H-YV[Nle]GP[d2Nal]RWDRFG-NH2) ... 70%
2. CCCC[C@H](NC(=O)[C@@H](NC(=O)[C@@H](N)Cc1ccc(O)cc1)C(C)C)C(=O)N[C@H]1CC(=O)NCCCC[C@H](C(=O)N[C@@H](CCCN=C(N)N)C(=O)N[C@@H](Cc2ccccc2)C(=O)NCC(N)=O)NC(=O)[C@@H](Cc2c[nH]c3ccccc23)NC(=O)[C@H](CCCN=C(N)N)NC(=O)[C@@H](Cc2ccccc2)NC(=O)[C@H](Cc2c[nH]cn2)NC1=O ... 100%
3. CC(C)[C@H](NC(=O)[C@@H](N)Cc1ccc(O)cc1)C(=O)N[C@@H]1CSSC[C@@H](C(=O)N[C@@H](CCCN=C(N)N)C(=O)N[C@@H](Cc2ccccc2)C(=O)NCC(N)=O)NC(=O)[C@H](Cc2c[nH]c3ccccc23)NC(=O)[C@H](CCCN=C(N)N)NC(=O)[C@@H](Cc2ccccc2)NC(=O)[C@H](Cc2c[nH]cn2)NC(=O)CNC1=O ... 93%
4. CCCC[C@H](NC(=O)[C@@H](NC(=O)[C@@H](N)Cc1ccc(O)cc1)C(C)C)C(=O)NCC(=O)N[C@@H](Cc1c[nH]cn1)C(=O)N[C@@H](Cc1ccccc1)C(=O)N[C@@H](CCCN=C(N)N)C(=O)N[C@H](Cc1ccc2ccccc2c1)C(=O)N[C@@H](CC(=O)O)C(=O)N[C@@H](CCCN=C(N)N)C(=O)N[C@@H](Cc1ccccc1)C(=O)NCC(N)=O ... 31%
5. CCCC[C@H](NC(=O)[C@@H](NC(=O)[C@@H](N)Cc1ccc(O)cc1)C(C)C)C(=O)NCC(=O)N[C@@](C)(Cc1ccccc1)C(=O)N[C@@H](Cc1ccccc1)C(=O)N[C@@H](CCCN=C(N)N)C(=O)N[C@H](Cc1ccc2ccccc2c1)C(=O)N[C@@H](CC(=O)O)C(=O)N[C@@H](CCCN=C(N)N)C(=O)N[C@@H](Cc1ccccc1)C(=O)NCC(N)=O ... 40%
6. CCCC[C@H](NC(=O)[C@@H](NC(=O)[C@@H](N)Cc1ccc(O)cc1)C(C)C)C(=O)NCC(=O)N[C@@H](Cc1c[nH]cn1)C(=O)N[C@H](Cc1ccc2ccccc2c1)C(=O)N[C@@H](CCCN=C(N)N)C(=O)N[C@H](Cc1ccc2ccccc2c1)C(=O)N[C@@H](CC(=O)O)C(=O)N[C@@H](CCCN=C(N)N)C(=O)N[C@@H](Cc1ccccc1)C(=O)NCC(N)=O ... 40%
7. CC(C)[C@H](NC(=O)[C@@H](N)Cc1ccc(O)cc1)C(=O)N[C@H]1C(=O)NCC(=O)N[C@@H](Cc2c[nH]cn2)C(=O)N[C@H](Cc2ccccc2)C(=O)N[C@@H](CCCN=C(N)N)C(=O)N[C@@H](Cc2c[nH]c3ccccc23)C(=O)N[C@H](C(=O)N[C@@H](CCCN=C(N)N)C(=O)N[C@@H](Cc2ccccc2)C(=O)NCC(N)=O)CSSC1(C)C ... 77%

----------
# TARGET_UNDER_TEST: Melanocortin receptor 3 (Homo sapiens, UniProt P41968)
# ASSAY_PROCEDURE: Intracellular cAMP accumulation in human Melanocortin 3 receptor functional assay.
Bridge positions count the residues as written; N and C are the ends. Square brackets hold non-standard residues; d marks the D form. Peptide text beside a SMILES is read from it. Pen = CC(C)(S)[C@H](N)C(=O)O; Nle = CCCC[C@H](N)C(=O)O
Quick list: EC50 per entry.
REPORTED_PROPERTY: EC50 (nM)

1) CCCC[C@H](NC(=O)[C@@H](NC(=O)[C@@H](N)Cc1ccc(O)cc1)C(C)C)C(=O)NCC(=O)N[C@@H](Cc1c[nH]cn1)C(=O)N[C@@H](Cc1ccccc1)C(=O)N[C@@H](CCCN=C(N)N)C(=O)N[C@H](Cc1ccc2ccccc2c1)C(=O)N[C@@H](CC(=O)O)C(=O)N[C@@H](CCCN=C(N)N)C(=O)N[C@@H](Cc1ccccc1)C(=O)NCC(N)=O ... 2400
2) CCCC[C@H](NC(=O)[C@@H](NC(=O)[C@@H](N)Cc1ccc(O)cc1)C(C)C)C(=O)N[C@@H]1C(=O)N[C@@H](Cc2c[nH]cn2)C(=O)N[C@@H](Cc2ccccc2)C(=O)N[C@@H](CCCN=C(N)N)C(=O)N[C@@H](Cc2c[nH]c3ccccc23)C(=O)N[C@H](C(=O)N[C@@H](CCCN=C(N)N)C(=O)N[C@@H](Cc2ccccc2)C(=O)NCC(N)=O)CSSC1(C)C (H-YV[Nle][Pen]HFRWCRFG-NH2; disulfide 4-9) ... 19
3) CCCC[C@H](NC(=O)[C@@H](NC(=O)[C@@H](N)Cc1ccc(O)cc1)C(C)C)C(=O)N[C@H]1CC(=O)NCCCC[C@@H](C(=O)N[C@@H](CCCN=C(N)N)C(=O)N[C@@H](Cc2ccccc2)C(=O)NCC(N)=O)NC(=O)[C@H](Cc2c[nH]c3ccccc23)NC(=O)[C@H](CCCN=C(N)N)NC(=O)[C@H](Cc2ccccc2)NC(=O)[C@H](Cc2c[nH]cn2)NC1=O ... 240

----------
# TARGET_UNDER_TEST: Melanocortin receptor 3 (Homo sapiens, UniProt P41968)
# ASSAY_PROCEDURE: Intracellular cAMP accumulation in human Melanocortin 3 receptor functional assay.
Overview of recorded EC50 for various compounds
REPORTED_PROPERTY: EC50 (nM)

1) CC(C)[C@H](NC(=O)[C@@H](N)Cc1ccc(O)cc1)C(=O)N[C@@H]1C(=O)NCC(=O)N[C@@H](Cc2cnc[nH]2)C(=O)N[C@@H](Cc2ccccc2)C(=O)N[C@@H](CCCNC(=N)N)C(=O)N[C@@H](Cc2c[nH]c3ccccc23)C(=O)N[C@H](C(=O)N[C@@H](CCCNC(=N)N)C(=O)N[C@@H](Cc2ccccc2)C(=O)NCC(N)=O)CSSC1(C)C ... 400
2) CCCC[C@H](NC(=O)[C@@H](NC(=O)[C@@H](N)Cc1ccc(O)cc1)C(C)C)C(=O)N[C@H]1CSSC[C@H](C(=O)N[C@@H](CCCN=C(N)N)C(=O)N[C@@H](Cc2ccccc2)C(=O)NCC(N)=O)NC(=O)[C@H](Cc2c[nH]c3ccccc23)NC(=O)[C@H](CCCN=C(N)N)NC(=O)[C@H](Cc2ccccc2)NC(=O)[C@H](Cc2c[nH]cn2)NC1=O ... 39
3) CCCC[C@H](NC(=O)[C@@H](NC(=O)[C@@H](N)Cc1ccc(O)cc1)C(C)C)C(=O)NCC(=O)N[C@@](C)(Cc1ccccc1)C(=O)N[C@@H](Cc1ccccc1)C(=O)N[C@@H](CCCN=C(N)N)C(=O)N[C@H](Cc1ccc2ccccc2c1)C(=O)N[C@@H](CC(=O)O)C(=O)N[C@@H](CCCN=C(N)N)C(=O)N[C@@H](Cc1ccccc1)C(=O)NCC(N)=O ... 150
4) CCCC[C@H](NC(=O)[C@@H](NC(=O)[C@@H](N)Cc1ccc(O)cc1)C(C)C)C(=O)N[C@@H]1CSSC[C@@H](C(=O)N[C@@H](CCCNC(=N)N)C(=O)N[C@@H](Cc2ccccc2)C(=O)NCC(N)=O)NC(=O)[C@H](Cc2c[nH]c3ccccc23)NC(=O)[C@H](CCCNC(=N)N)NC(=O)[C@H](Cc2ccccc2)NC(=O)[C@H](Cc2cnc[nH]2)NC1=O ... 210
5) CC(C)[C@H](NC(=O)[C@@H](N)Cc1ccc(O)cc1)C(=O)N[C@H]1CSSC[C@@H](C(=O)N[C@@H](CCCN=C(N)N)C(=O)N[C@@H](Cc2ccccc2)C(=O)NCC(N)=O)NC(=O)[C@H](Cc2c[nH]c3ccccc23)NC(=O)[C@H](CCCN=C(N)N)NC(=O)[C@H](Cc2ccccc2)NC(=O)[C@H](Cc2c[nH]cn2)NC(=O)CNC1=O ... 36
6) CCCC[C@H](NC(=O)[C@@H](NC(=O)[C@@H](N)Cc1ccc(O)cc1)C(C)C)C(=O)NCC(=O)N[C@@H](Cc1c[nH]cn1)C(=O)N[C@H](Cc1ccc2ccccc2c1)C(=O)N[C@@H](CCCN=C(N)N)C(=O)N[C@H](Cc1ccc2ccccc2c1)C(=O)N[C@@H](CC(=O)O)C(=O)N[C@@H](CCCN=C(N)N)C(=O)N[C@@H](Cc1ccccc1)C(=O)NCC(N)=O ... 12
7) CCCC[C@H](NC(=O)[C@@H](NC(=O)[C@@H](N)Cc1ccc(O)cc1)C(C)C)C(=O)N[C@H]1CSSC[C@@H](C(=O)N[C@@H](CCCNC(=N)N)C(=O)N[C@@H](Cc2ccccc2)C(=O)NCC(N)=O)NC(=O)[C@H](Cc2c[nH]c3ccccc23)NC(=O)[C@H](CCCNC(=N)N)NC(=O)[C@H](Cc2ccccc2)NC(=O)[C@H](Cc2cnc[nH]2)NC1=O ... 4.2
